- System: BT-549 breast
- Experimental Protocol: NCI tumour cell line growth inhibition, 48 h
Measured Property: TGI

INSERT INTO results (compound, measured_property, data_value) VALUES
  ('CC1=CSC2=NC(c3ccc(Cl)c(Cl)c3)=CC(c3ccc(Cl)cc3)N12 (stereo not given)', 'TGI', '> 100 µM'),
  ('CCN(CC)CCCNc1ccc2nnn3c4ccc(O)cc4c(=O)c1c23', 'TGI', '27 µM'),
  ('CCCCN(c1ccccc1)c1ncnc2c1cnn2C', 'TGI', '62.1 µM'),
  ('CC1=CC[C@@H]2CC[C@]3(C)[C@H](CC[C@@H]4[C@@]5(C)CCCNC(C)(C)[C@@H]5CC[C@]43C)[C@H]2[C@@H]1C', 'TGI', '3.14 µM'),
  ('COc1cc(OC2OC(C)C(O)C(O)C2O)cc2oc(-c3ccc(O)cc3)c(CC=C(C)C)c(=O)c12 (stereo not given)', 'TGI', '> 100 µM'),
  ('CCCCNc1nc(NC(C)(C)C)nc(NC(C)(C)C)n1', 'TGI', '> 100 µM'),
  ('CC[N+](C)(CC)CCN1C(=O)c2ccccc2S1(=O)=O', 'TGI', '> 100 µM'),
  ('O=c1cc(-c2ccccc2)[nH]c2cccc(S)c12', 'TGI', '> 100 µM'),
  ('N#Cc1c2c(c(N3CCOCC3)n3c1nc1ccccc13)CCCC2', 'TGI', '> 100 µM'),
  ('COc1ccc(NC2Oc3cc4c(cc3C(c3cc(OC)c(O)c(OC)c3)C2C)OCO4)cc1 (stereo not given)', 'TGI', '> 100 µM'),
  ('CSc1ncc2c(n1)-c1ccccc1OC2N1CCCC1 (stereo not given)', 'TGI', '> 100 µM'),
  ('CN1C2CC(=O)CC1[C@@H]1OC(c3ccccc3)O[C@H]21 (stereo not given in full)', 'TGI', '> 100 µM'),
  ('N#CCCN(CCCN(C(=O)Nc1ccccc1)c1ccccc1)C(=O)Nc1ccccc1', 'TGI', '> 100 µM'),
  ('CCOC(=O)[C@@H](C)C[C@H](Cc1ccccc1)NC(=O)c1csc([C@@H](C[C@H](C(C)C)N(C)C(=O)[C@@H](NC(=O)[C@H]2C[C@H](O[Si](C)(C)C(C)(C)C)CCN2C)C(C)C)OC(C)=O)n1', 'TGI', '2.53 µM'),
  ('Nc1nc(-c2cccc([N+](=O)[O-])c2)c(Br)c(=O)[nH]1', 'TGI', '> 63 µM'),
  ('CCOC(=O)C(Cc1ccccc1)(Cc1ccc(O)cn1)NC(=O)c1ccccc1 (stereo not given)', 'TGI', '81 µM'),
  ('COc1cc(/C=C/c2cc(C(F)(F)F)[nH]c(=O)n2)ccc1OCc1ccccc1F', 'TGI', '20.6 µM'),
  ('O=C(O)C1CCc2ccc3ccccc3c2C1c1cccc2ccccc12 (stereo not given)', 'TGI', '38.8 µM'),
  ('COC(=O)C(COC(=O)/C=C/c1ccc(OC(C)=O)c(OC(C)=O)c1)OC(=O)/C=C/c1ccc(OC(C)=O)c(OC(C)=O)c1 (stereo not given)', 'TGI', '33.5 µM'),
  ('Cc1c(CCCl)c(=O)n2c([nH]c3ccccc32)c1C#N', 'TGI', '3.63 µM');

---

- System: UO-31 renal
- Experimental Protocol: NCI tumour cell line growth inhibition, 48 h
In this section, each of the compounds is paired with its reported TGI.
Measured Property: TGI

INSERT INTO results (compound, data_value) VALUES
  ('CN1CC(c2ccccc2)N(CCCCN2CC(c3ccccc3)N(C)CC2c2ccccc2)CC1c1ccccc1 (stereo unspecified)', '> 100 µM'),
  ('CCCCNc1nc(NC(C)(C)C)nc(NC(C)(C)C)n1', '> 100 µM'),
  ('O=C(Nc1ccc(Cl)cc1)Nc1ccc(Cl)c(Cl)c1', '10.1 µM'),
  ('Cc1ccc(C(=O)c2oc3ccc4c(C)cc(=O)oc4c3c2C)cc1', '> 100 µM'),
  ('CC(C)n1c(=O)n(-c2ccccc2)n(C(C)(C)C)c1=O', '> 100 µM'),
  ('O=C(c1ccco1)N(C(=S)OCc1ccccn1)c1ccccc1', '> 100 µM');

---

- Test system: SF-539 CNS
- Experimental Protocol: NCI tumour cell line growth inhibition, 48 h
Label met for high-side TGI (at or above 30 µM) and not met for low-side TGI (below it).

INSERT INTO results (compound, cat) VALUES
  ('O=C(Nc1ccccc1C(F)(F)F)c1cccc(NC2=C(Cl)C(=O)N(Cc3ccccc3)C2=O)c1', 'met'),
  ('O=c1ccn(C2OC(CO)C(O)C2O)c(=O)[nH]1 (stereo not given)', 'met'),
  ('COc1cccc(-c2nc3sccn3c2-c2ccnc(NCCNC(=O)Nc3cccc(C(F)(F)F)c3)n2)c1', 'not met'),
  ('COc1cc(/C=C/c2cc(C(F)(F)F)[nH]c(=O)n2)ccc1OCc1ccccc1F', 'not met'),
  ('Oc1ccc(Br)cc1Sc1cc(Br)ccc1O', 'not met'),
  ('CCN(CC)CCn1c2c3ccccc3ccc2c2oc(=O)c3ccccc3c21', 'met'),
  ('COc1cc(OC2OC(C)C(O)C(O)C2O)cc2oc(-c3ccc(O)cc3)c(CC=C(C)C)c(=O)c12 (stereo not given)', 'met'),
  ('COc1ccc(NC(=O)C2C(=O)N(c3ccc(OC)cc3)C(=O)/C2=N/O)cc1 (stereo not given)', 'met');

---

- Test system: 786-0 renal
- Experimental Protocol: NCI tumour cell line growth inhibition, 48 h
In this section, each of the molecules is paired with its reported GI50.
Measured Property: GI50

INSERT INTO measurements (molecule, data_value) VALUES
  ('CC(=O)Oc1cc(C)ccc1[C@]1(C)CC[C@H](C)/C1=C\Br', '4.09 µM'),
  ('CN(C)CCNc1nc2ccccc2c2c1c1c(n2Cc2ccccc2)-c2ccccc2C1=O', '19.2 µM'),
  ('CC1=CSC2=NC(c3ccc(Cl)c(Cl)c3)=CC(c3ccc(Cl)cc3)N12 (stereo not drawn)', '> 100 µM'),
  ('CCCCCCC/C=C/[C@H]1O[C@]23C(=O)C[C@@]4(C[C@@H](OC5OC(CO)C(O)C(O)C5O)C[C@@H]4[C@H]2C=C1C)OC3=O (stereo partly drawn)', '4.9 µM'),
  ('COc1ccc2c(c1)sc1nc(-c3ccccc3)c(-c3ccsc3)n12', '7.58 µM'),
  ('Cc1ccc(C(=O)c2oc3ccc4c(C)cc(=O)oc4c3c2C)cc1', '5.96 µM'),
  ('CCOc1ccc(/C=C/C(=O)c2ccccc2)cc1', '20.6 µM'),
  ('CC1(C)C=CC[C@]2(C)[C@H]3CC[C@@H]4[C@H]5[C@H](C(=O)/C=C/c6cccnc6)CC[C@]5(CO)CC[C@@]4(C)[C@]3(C)CC[C@@H]12', '1.64 µM');

---

- System: SN12C renal
- Experimental Protocol: NCI tumour cell line growth inhibition, 48 h
Measured Property: TGI

INSERT INTO assay_data (compound, measured_property, data_value) VALUES
  ('Cc1cc2nc3c(=O)n(C)c(=O)nc-3n(-c3ccc(Cl)cc3)c2cc1C', 'TGI', '18.6 µM'),
  ('COc1cc2c(cc1C)NC(=O)/C2=C\c1cc(OC)c(OC)c(OC)c1', 'TGI', '> 100 µM'),
  ('CC(=O)NC(CCCCNC(=O)OCc1ccccc1)C(=O)NCc1ccccc1 (stereo not given)', 'TGI', '> 100 µM'),
  ('CCOC(=O)c1cn(-c2ccc(Cl)cc2)c(=O)n2c1nc1ccccc12', 'TGI', '> 100 µM'),
  ('Cc1cc(/C=C2\SC(=Nc3ccccc3)N(C3CCCC3)C2=O)c(C)n1-c1ccc(Cl)cc1', 'TGI', '> 100 µM');

---

- Tested on: A498 renal
- Experimental Protocol: NCI tumour cell line growth inhibition, 48 h; in the data active = GI50 below about 0.43 µM; inactive = the rest
Classes used: active, inactive

INSERT INTO results (smiles_data, cat) VALUES
  ('CCCCNc1nc(NC(C)(C)C)nc(NC(C)(C)C)n1', 'inactive'),
  ('CC1=CC[C@@H]2CC[C@]3(C)[C@H](CC[C@@H]4[C@@]5(C)CCCNC(C)(C)[C@@H]5CC[C@]43C)[C@H]2[C@@H]1C', 'inactive'),
  ('C=CCn1c(C)nc2cc(Nc3nc(Nc4ccc5nc(C)n(CC=C)c5c4)c4ccccc4n3)ccc21', 'inactive'),
  ('C[CH2][Sn]1([CH2]C)[O]C(=O)[O][Sn]([CH2]C)([CH2]C)[O]1', 'inactive'),
  ('COc1c/c(=C2/C=c3ccccc3=N2)[nH]/c1=C/c1[nH]c(C)cc1C', 'active'),
  ('COc1cc2c(cc1OCc1ccccc1)N=C[C@@H]1C/C(=C/C(=O)NCCCN3C(=O)c4cccc5cccc(c45)C3=O)CN1C2=O', 'inactive'),
  ('CC(=O)Oc1cc(C)ccc1[C@]1(C)CC[C@H](C)/C1=C\Br', 'inactive'),
  ('COc1cc([C@H](C)c2ccc3ccccc3c2)cc(OC)c1OC', 'active'),
  ('CN(C)CCNc1nc2ccccc2c2c1c1c(n2Cc2ccccc2)-c2ccccc2C1=O', 'inactive'),
  ('Clc1nc(Oc2ccccc2)nc(-c2cn(-c3ccccc3)c3ccccc23)n1', 'inactive'),
  ('COc1cc(/C=C/c2cc(C(F)(F)F)[nH]c(=O)n2)ccc1OCc1ccccc1F', 'inactive');
